Reference source for all entries: patent US20070219162A1

assay: Tamponade force calculated from specific gravity difference to fluid vitreous; type: physicochemical; design: unit not given beside the values; conditions: difference in specific gravity to fluid vitreous (1.03) multiplied by volume of tamponade agent (5 mL)
measurement.label: Tamponade Force
Lab note: record just the number, no unit beside it.

Endpoint output: Tamponade Force of FC(F)(F)C(F)(F)CCCOCCCC(F)(F)C(F)(F)F [DFPE, decafluoro-di-n-pentyl ether] . Value?
1.4

Endpoint output: Tamponade Force of FC(F)(F)C(F)(F)C(F)(F)C(F)(F)C(F)(F)C(F)(F)C(F)(F)C(F)(F)F [PFnO, perfluoro-n-octane] . Value?
3.65

Endpoint output: Tamponade Force of FC1(F)C(F)(F)C(F)(F)C2(F)C(F)(F)C(F)(F)C(F)(F)C(F)(F)C2(F)C1(F)F (stereo not shown) [Perfluorodecalin, perfluorodecalin] . Value?
4.55

Endpoint output: Tamponade Force of Fc1c(F)c(F)c2c(c1F)c(F)c(F)c1c(F)c(F)c(F)c(F)c12 [Perfluorophenanthrene, perfluorophenanthrene] . Value?
5.0
